TEST TARGET: UniProtKB P03372
ASSAY EXPLANATION: cell-based
READOUT KIND: pEC50
To interpret pEC50, take it as minus log10 of a concentration measured in moles per litre.

MOLECULE: O=C(c1ccc(OCCN2CC(CF)C2)cc1)c1c(-c2ccccc2)sc2cc(O)ccc12
TEST TARGET: UniProtKB P03372
pEC50: 8.80

GET pEC50 where system = UniProtKB P03372 and item = Oc1ccc(-c2onc(-c3ccccc3Cl)c2-c2ccc(OCCN3CC[C@@H](CF)C3)cc2)cc1
8.64

GET pEC50 where system = UniProtKB P03372 and item = Oc1ccc2c(c1)O[C@H](c1ccc(OCCN3CC(CF)C3)cc1)C1=C2CCOc2ccc(O)cc21
8.02

GET pEC50 where system = UniProtKB P03372 and item = Oc1ccc([C@H]2Sc3cc(O)ccc3O[C@H]2c2ccc(OCCN3CC[C@@H](CF)C3)cc2)cc1 (racemic)
9.00

GET pEC50 where system = UniProtKB P03372 and item = CC/C(=C(\c1ccccc1)c1ccc(OCCN2CC[C@@H](CF)C2)cc1)c1ccccc1
7.82

GET pEC50 where system = UniProtKB P03372 and item = Oc1cccc([C@H]2Sc3cc(O)ccc3O[C@H]2c2ccc(OCCN3CC(CF)C3)cc2)c1 (racemic)
8.96

====

The following molecules are listed with their measured ER-alpha MCF7 HCS Sinf values.
TEST TARGET: estrogen receptor alpha (ESR1) (Homo sapiens, UniProt P03372)
Sequence (P03372 whole entry): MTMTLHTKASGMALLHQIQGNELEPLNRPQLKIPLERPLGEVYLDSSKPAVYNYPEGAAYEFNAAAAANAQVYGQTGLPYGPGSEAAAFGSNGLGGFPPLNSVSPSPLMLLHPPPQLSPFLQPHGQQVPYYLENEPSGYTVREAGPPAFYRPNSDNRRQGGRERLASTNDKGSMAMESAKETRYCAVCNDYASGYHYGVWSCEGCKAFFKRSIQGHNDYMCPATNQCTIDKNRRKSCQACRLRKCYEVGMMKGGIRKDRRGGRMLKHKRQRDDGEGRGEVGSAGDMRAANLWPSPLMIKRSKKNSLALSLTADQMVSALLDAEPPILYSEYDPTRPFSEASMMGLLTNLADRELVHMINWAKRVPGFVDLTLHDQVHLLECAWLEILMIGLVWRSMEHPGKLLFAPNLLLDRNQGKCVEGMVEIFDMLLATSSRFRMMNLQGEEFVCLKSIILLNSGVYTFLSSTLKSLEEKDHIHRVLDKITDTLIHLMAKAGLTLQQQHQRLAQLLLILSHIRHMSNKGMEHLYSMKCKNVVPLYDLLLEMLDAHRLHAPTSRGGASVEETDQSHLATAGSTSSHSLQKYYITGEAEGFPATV
ASSAY EXPLANATION: cell-based
ASSAY CONTEXT: MCF7 breast cancer cells, 4 hours; plateau of the maximal effect; DMSO and Fulvestrant define 0% and 100% changes in ESR1
Write the value in % as a bare number.

MOLECULE: CC/C(=C(\c1ccccc1)c1ccc(OCCN2CC[C@@H](CF)C2)cc1)c1ccccc1 [Example 19]
UNITS LABEL: %
MEASURED: −75

MOLECULE: Cc1c(-c2ccc(O)cc2)n(Cc2ccc(OCCN3CC(CF)C3)cc2)c2cc(F)c(O)cc12 [Example 49]
UNITS LABEL: %
MEASURED: −95.6

MOLECULE: Cn1c(-c2ccc(O)cc2)c(C(=O)c2ccc(OCCN3CC(CF)C3)cc2)c2ccc(O)cc21 [Example 6]
UNITS LABEL: %
MEASURED: −50

Please turn your attention to the following entry.
Answer with reported ER-alpha MCF7 HCS Sinf of O=C(c1ccc(OCCN2CC(CF)C2)cc1)c1c(-c2ccc(O)cc2)sc2cc(O)ccc12 [Example 9]
−97

====

The following molecules are listed with their measured EC50 values.
TEST TARGET: estrogen receptor alpha (ESR1) (Homo sapiens, UniProt P03372)
ASSAY EXPLANATION: cell-based
Write the value in nM as a bare number.

Answer with reported EC50 of Cc1c(-c2ccc(O)c(F)c2)n(Cc2ccc(OC[C@H](C)N3CC[C@@H](CF)C3)cc2)c2ccc(O)cc12
0.00632

Answer with reported EC50 of Cc1cc(-c2c(C)c3cc(O)ccc3n2Cc2ccc(OC[C@H](C)N3CC[C@@H](CF)C3)cc2)ccc1O
0.0179

Answer with reported EC50 of O=C(c1ccc(OCCN2CC(CF)C2)c(F)c1)c1c(-c2ccccc2Cl)nsc1-c1ccc(O)cc1
0.0159

Answer with reported EC50 of Oc1ccc([C@H]2Sc3cc(O)ccc3O[C@H]2c2ccc(OCCN3CC(CF)C3)cc2)cc1 (racemic)
0.55

Answer with reported EC50 of Cc1c(-c2ccc(O)cc2Cl)n(Cc2ccc(OCCN3CC(CF)C3)cc2)c2ccc(O)cc12
0.115

Answer with reported EC50 of COc1ccc(-c2sc3cc(O)ccc3c2Oc2ccc(OC[C@H](C)N3CC[C@@H](CF)C3)cc2)cc1
310

Answer with reported EC50 of CC/C(=C(\c1ccc(O)cc1)c1ccc(OCCN2CC[C@@H](CF)C2)cc1)c1ccccc1
0.58

Answer with reported EC50 of Cc1c(-c2ccc(O)cc2)n(Cc2ccc(OCCN3CC(CF)C3)cc2)c2ccc(O)cc12
0.46

Answer with reported EC50 of CS(=O)(=O)c1ccc(-c2ccc3cc(O)ccc3c2Oc2ccc(OCCN3CC[C@@H](CF)C3)cc2)cc1
0.27

Answer with reported EC50 of O=C(C1=C(c2ccc(O)cc2)CCc2cc(O)ccc21)c1ccc(OCCN2CC(CF)C2)cc1
0.19

Answer with reported EC50 of CC/C(=C(\c1ccc(O)cc1)c1ccc(OCCN2CC(CF)C2)cc1)c1ccccc1
0.59
